assay: NCI Yeast Anticancer Drug Screen. Data for the mgt1 strain (AID 153); settings: S. cerevisiae mgt1 mutant growth inhibition; at 33.0 µM
The panel holds about 79,000 compounds, 15% with a hit somewhere; the sample as a whole holds those more often. The source made the active and inactive calls. No stated cut-off is given here; in the data, active means growth inhibition above about 70%; inactive means the rest.
// allowed return values: active, inactive

Cc1ccc([N+]2=NC(c3ccccc3)=NN(c3ccccc3)C2)cc1 ... active
CCOC(=O)C(C(=O)OCC)=P(c1ccccc1)(c1ccccc1)c1ccccc1 ... inactive
O=[N+]([O-])c1cccc2nc3ccccc3c(NCCCn3ccnc3[N+](=O)[O-])c12 ... inactive
O=c1ccc(=O)n(-c2ccccc2)[nH]1 ... active
S=C1SCN(C2CCCCC2)CN1C1CCCCC1 ... inactive

Challenge: I would be grateful if you could indicate the recorded call for CCCCCCOC(=O)NCCOC(=O)Nc1ccccc1 .
Response given: inactive

Challenge: I would be grateful if you could indicate the recorded call for O=C1OC(OC/C(Br)=C(\Br)COC2OC(=O)C(Cl)=C2Cl)C(Cl)=C1Cl (stereo not drawn) .
Response given: inactive

Challenge: I would be grateful if you could indicate the recorded call for COc1cc(CSc2ccc(O)cc2)cc(O)c1O .
Response given: inactive

====

assay: NCI Yeast Anticancer Drug Screen. Data for the rad50 strain (AID 155);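 further: 0% = growth of vehicle-only cultures of the same strain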; settings: S. cerevisiae rad50 strain growth inhibition; at 3.7 µM; stronger effect = higher value
About 79,000 compounds went through this panel and 15% of them were active in at least one assay; those are over-represented in the sample as a whole.
measured quantity: growth inhibition (%)
Numbers only here, please. The scale is %.

CC(C)CN(CC(C)C)C(=O)c1ccc(Cl)c(Cl)c1 ... 4
OCC(CO)C(c1cccc2ccccc12)c1cccc2ccccc12 ... 40
CCCCC(CC)C(=O)[O][Sn]([CH2]CCC)([CH2]CCC)[O]C(=O)C(CC)CCCC (stereo not given) ... 11
Cc1nc(Nc2ccccc2[N+](=O)[O-])sc1C(=O)CC(=O)C(=O)Nc1c(C(C)C)cccc1C(C)C ... -16

Turning to the following compound.
Challenge: # return recorded growth inhibition for entry CC(=O)Nc1ccc2c(c1)-c1ccccc1C2=O
Response given: 19

====

test: NCI Yeast Anticancer Drug Screen. Data for the wt2 strain (AID 169);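 further: 0% = growth of vehicle-treated yeast cultures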; conditions: S. cerevisiae wt2 strain growth inhibition; at 11.0 µM; stronger effect = higher value
The panel holds about 79,000 compounds, 15% with a hit somewhere; the sample as a whole holds those more often.
Listing of recorded growth inhibition by entry.
Numbers only here, please. The scale is %.

O=C1Nc2ccc(Br)cc2C1=Nc1ccc2c(c1)OCO2 ... -22
NC(=O)C(=O)NNc1ccccc1 ... 34

Challenge: # return recorded growth inhibition for entry CCOc1ccc(NC(=O)C2=C(C)NC(C)=C(C(=O)Nc3ccc(OCC)cc3)C2c2cccc([N+](=O)[O-])c2)cc1
Response given: -2

Challenge: # return recorded growth inhibition for entry CC1SC2(C(=O)Nc3ccc(Cl)cc32)N(c2ccc(Cl)cc2)C1=O (stereo unspecified)
Response given: -3

====

experiment: NCI Yeast Anticancer Drug Screen. Data for the CLN2oe strain (AID 163);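 further: 0% = growth of vehicle-only control cultures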; conditions: S. cerevisiae CLN2oe strain, at 3.7 µM, stronger effect = higher value
This is part of a sample that, as a whole, favours compounds with a hit. Of some 79,000 tested, about 15% had one in any assay. Calls of active or inactive are those of the source. Cut-off read from the data, not from the text of the source: active = growth inhibition above about 70%; inactive = the rest.
measured quantity: growth inhibition

CCCCN(CCCC)C(=O)/C=C/c1ccccc1 ... -6% (inactive)

Challenge: # return recorded growth inhibition for entry CCc1nc2ccc(NCCN(C)C)c3c(=O)c4ccccc4n1c23
Response given: 13% (inactive)

All values here come from PubChem BioAssay (NCI).
